Reference source for all entries: patent US20230348465A1

Kindly supply the reported pIC50 values for the records listed here.
- assayed.system: rVMAT2 (Rattus norvegicus, UniProt Q01827)
- Construct: expressed in transfected cells; host or cells: HEK cells, stably transfected (rVMAT2-HEK)
- Sequence (Q01827 whole entry): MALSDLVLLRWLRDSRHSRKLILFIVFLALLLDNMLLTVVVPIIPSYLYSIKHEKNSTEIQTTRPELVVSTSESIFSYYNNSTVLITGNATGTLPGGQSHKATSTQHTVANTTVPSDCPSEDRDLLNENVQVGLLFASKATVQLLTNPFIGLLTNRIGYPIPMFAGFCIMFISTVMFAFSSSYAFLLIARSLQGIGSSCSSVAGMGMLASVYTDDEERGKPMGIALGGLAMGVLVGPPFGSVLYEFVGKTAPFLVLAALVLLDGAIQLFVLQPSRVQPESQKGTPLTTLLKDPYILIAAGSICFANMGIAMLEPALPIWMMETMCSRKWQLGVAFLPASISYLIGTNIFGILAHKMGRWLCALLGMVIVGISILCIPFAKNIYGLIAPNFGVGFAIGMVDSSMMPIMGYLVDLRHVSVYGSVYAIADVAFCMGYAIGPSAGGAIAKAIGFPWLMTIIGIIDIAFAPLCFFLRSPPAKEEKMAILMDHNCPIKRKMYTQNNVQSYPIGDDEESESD
- measurement.notes: rVMAT2 screening assay: inhibition of uptake of the fluorescent substrate FFN206 in stably transfected rVMAT2-HEK cells
- Format: cell-based
- test.settings: rVMAT2-HEK cells, FFN206 0.75 µM, mean ± SEM, n ≥ 4; read-out: VMAT2 IC50
A value of pIC50 is the negative decimal logarithm of a concentration given in moles per litre.

q: Item CCC1CC2CC3c4[nH]c5cc(Br)c(OC)cc5c4CCN(C2)C13 (stereo not drawn) [Compound 18, 11-Bromo-ibogaine] has what recorded pIC50?
a: 6.00

q: Item CCC1CC2CC3c4c(c5cc(OC)ccc5n4C)CCN(C2)C13 (stereo not drawn) [Compound 7, N-methyl-ibogaine] has what recorded pIC50?
a: 6.13

q: Item CCc1ccc2c(c1)c1c(n2C)C2CC3CC(CC)C2N(CC1)C3 (stereo not drawn) [Compound 11, N-methyl-10-ethyl-ibogamine] has what recorded pIC50?
a: 6.12
